- Test system: Bacillus subtilis
- TEST_NAME: cleaved RNA product abundance (RNA/gDNA barcode ratio) relative to median wild-type variant (ratio to wild type); higher = more accumulation of the downstream cleavage product
- CONDITIONS_USED: experiment (reporter, strain, medium): exp 8a: truncated aprE reporter, strain BJT201 with 2% xylose (RNase J1 expressed); cleavage site: glnRA (positions -5 to +31 mutated)
QUANTITY_MEASURED: cleaved RNA product abundance
Give bare numbers.

>  <CHAIN_SEQUENCE>
CGACATGTCCCGCTTCTTTCATTAATCCGTTAGCATCTGTTTTGCTATATTCATTTACCTTTTAAGAGGAGGAAT

>  <cleaved RNA product abundance>
0.31

$$$$

For each of the sequences below, note its cleaved RNA product abundance.
1. CGACATGTCCCGCTTCTTTCATTAATCCGTTAGCAACTGTTTCGTTATATACATTTACCTTTTAAGAGGAGGAAT
2. CGACATGTCCCGCTTCTTTCATTAATCCGTTATCAACTGTTTTACTATATACATTTACCTTTTAAGAGGAGGAAT
3. CGACATGTCCCGCTTCTTTCATTAATCCGTTAGCAACTGGTTTGCTATATACATTTACCTTTTAAGAGGAGGAAT
4. CGACATGTCCCGCTTCTTTCATTAATGCGTTAACAACTGTTTTGCTATATACATTTACCTTTTAAGAGGAGGAAT
5. CGACATGTCCCGCTTCTTTCATTAATCCGTAAGCAACTGTTTTGCTACATACATTTACCTTTTAAGAGGAGGAAT
6. CGACATGTCCCGCTTCTTTCATTAATCCGTTACGAACTGTTTTGCTATATACATTTACCTTTTAAGAGGAGGAAT
7. CGACATGTCCCGCTTCTTTCATTAATCCTTAGCACCTGTTTTGCTATATACATTATCCTTTTAAGAGGAGGAATT
8. CGACATGTCCCGCTTCTTTCATTAATCCGTTAGCAACTGTATTGCTATATAAATTTACCTTTTAAGAGGAGGAAT

1: 0.222; 2: 0.335; 3: 0.811; 4: 0.228; 5: 0.38; 6: 0.291; 7: 0.144; 8: 0.849

###

- Tested on: Bacillus subtilis
- TEST_NAME: cleaved RNA product abundance (RNA/gDNA barcode ratio) relative to median wild-type variant (ratio to wild type); higher = more accumulation of the downstream cleavage product
- CONDITIONS_USED: experiment (reporter, strain, medium): exp 4a: truncated aprE reporter, strain BJT201 with 2% xylose (RNase J1 expressed); cleavage site: cggR-gapA (positions -7 to +36 mutated)
QUANTITY_MEASURED: cleaved RNA product abundance
Numbers only.

Use the examples below as a reference point.
>  <CHAIN_SEQUENCE>
ACAGACGAAGGAGCCGCAAAGATGTTATTAAGGGATGAAAAATCCCTCAATATAAATATCTCTCACTTATTTAAA

>  <TGT>
Bacillus subtilis

>  <QUANTITY_MEASURED>
cleaved RNA product abundance

>  <VALUE_MEASURED>
0.733

$$$$
>  <CHAIN_SEQUENCE>
ACAGACGAAGGAGCCGCAAAGAAGTTATTAACGGATGAATAATCCCTCAACATAAATATCTCTCACTTATTTAAA

>  <TGT>
Bacillus subtilis

>  <QUANTITY_MEASURED>
cleaved RNA product abundance

>  <VALUE_MEASURED>
0.172

$$$$

Quickly give me recorded cleaved RNA product abundance for "ACAGACGAAGGAGCCGCAAAGACGTTATTAAGGGATGAATAATCCCTCGATATAAATATCTCTCACTTATTTAAA"
0.386
